Provenance of the data: ChEMBL document CHEMBL4145553

- Test system: NCI/ADR-RES
- method: Growth inhibition of human NCI/ADR-RES cells at 10 uM incubated for 48 hrs by sulforhodamine B assay relative to control
- Type: functional
- assay_setup: values are per cent of control
Consider the following molecules and their measured growth, % of control at 10 µM readings.
Record the result as number plus unit.

For orientation, consider the following solved cases.
structure_smiles=CCS/C(Nc1ccccc1)=C(\C#N)C(=O)Nc1ccccc1 property_name="growth, % of control at 10 µM" result=91.1%
structure_smiles=CCS/C(Nc1ccccc1)=C(\C#N)C(=O)Nc1ccc(OC)cc1 property_name="growth, % of control at 10 µM" result=-0.67%
structure_smiles=CCS/C(Nc1ccccc1)=C(\C#N)C(=O)Nc1ccc(C)cc1 property_name="growth, % of control at 10 µM" result=98.4%
structure_smiles=CCS/C(Nc1ccccc1)=C(\C#N)C(=O)N/N=C\c1ccc(Cl)cc1Cl property_name="growth, % of control at 10 µM" result=10.8%
structure_smiles=CCS/C(Nc1ccccc1)=C(\C#N)C(=O)N/N=C\c1ccco1 property_name="growth, % of control at 10 µM" result=101%
structure_smiles=CC(C)(C)S/C(Nc1ccccc1)=C(\C#N)C(=O)N/N=C\c1ccc(Cl)cc1Cl property_name="growth, % of control at 10 µM" result=96%

INPUT: Look at this molecule and give its reported growth, % of control at 10 µM. CC(C)(C)S/C(Nc1ccccc1)=C(\C#N)C(=O)N/N=C\c1ccco1
OUTPUT: 100%

INPUT: // returns reported growth, % of control at 10 µM for input CC(C)(C)S/C(Nc1ccccc1)=C(\C#N)C(=O)Nc1ccccc1
OUTPUT: 100%

====

- Test system: OVCAR-8
- method: Growth of human OVCAR8 cells at 10 uM incubated for 48 hrs by sulforhodamine B assay relative to control
- assay_setup: OVCAR-8, 48 h
Please use 1 for growth, % of control at 10 µM under 90% and 0 for everything else, ties included.

structure_smiles=CCS/C(Nc1ccccc1)=C(\C#N)C(=O)Nc1ccc(C)cc1 cat=0

INPUT: Bench note: check whether CC(C)(C)S/C(Nc1ccccc1)=C(\C#N)C(=O)Nc1ccccc1 shows growth, % of control at 10 µM below 90%
OUTPUT: 0

INPUT: Just wondering, is growth, % of control at 10 µM of CC(C)(C)S/C(Nc1ccccc1)=C(\C#N)C(=O)N/N=C\c1ccco1 below 90%?
OUTPUT: 0

INPUT: Does the reported growth, % of control at 10 µM of CCS/C(Nc1ccccc1)=C(\C#N)C(=O)Nc1ccccc1 stay below 90%?
OUTPUT: 0

INPUT: A record lists CCS/C(Nc1ccccc1)=C(\C#N)C(=O)Nc1ccc(OC)cc1 . Is its growth, % of control at 10 µM below 90%?
OUTPUT: 1

INPUT: I wonder whether CC(C)(C)S/C(Nc1ccccc1)=C(\C#N)C(=O)N/N=C\c1ccc(Cl)cc1Cl has growth, % of control at 10 µM below 90%. Can you tell?
OUTPUT: 0

INPUT: Consider CCS/C(Nc1ccccc1)=C(\C#N)C(=O)N/N=C\c1ccc(Cl)cc1Cl . Does its growth, % of control at 10 µM lie strictly below 90%?
OUTPUT: 1

====

- Tested on: SK-MEL-5
- method: Growth of human SK-MEL-5 cells at 10 uM incubated for 48 hrs by sulforhodamine B assay relative to control
- assay_setup: SK-MEL-5, 48 h
growth, % of control at 10 µM reference
A number alone suffices; assume %.

The examples below pair each entry with its known result.
structure_smiles=CCS/C(Nc1ccccc1)=C(\C#N)C(=O)N/N=C\c1ccco1 unit_string=% numeric_result=101
structure_smiles=CC(C)(C)S/C(Nc1ccccc1)=C(\C#N)C(=O)N/N=C\c1ccc(Cl)cc1Cl unit_string=% numeric_result=98.7
structure_smiles=CCS/C(Nc1ccccc1)=C(\C#N)C(=O)Nc1ccc(C)cc1 unit_string=% numeric_result=93.6

INPUT: // returns reported growth, % of control at 10 µM for input CCS/C(Nc1ccccc1)=C(\C#N)C(=O)Nc1ccc(OC)cc1
OUTPUT: 17.8

INPUT: Which growth, % of control at 10 µM is reported for this molecule? CCS/C(Nc1ccccc1)=C(\C#N)C(=O)N/N=C\c1ccc(Cl)cc1Cl
OUTPUT: 12.4

INPUT: // lookup growth, % of control at 10 µM for CC(C)(C)S/C(Nc1ccccc1)=C(\C#N)C(=O)Nc1ccccc1
OUTPUT: 102
